Tested on: DU-4475
test description: normalised response (% of control), CellTox Green; higher = less cell death (100 = DMSO, 0 = benzethonium chloride kill control)
experimental conditions: incubation time: 72 h
Reported normalised response by item:
measured property: normalised response (%)

# compound, measured value
rows = [
    ("Cn1c(CCCC(=O)O)nc2cc(N(CCCl)CCCl)ccc21 [Bendamustine] (10000 nM)", 103),
    ("N.N.[Cl][Pt][Cl] [Cisplatin] (100 nM)", 107),
    ("O=C(CCCCCCC(=O)Nc1ccc([C@H]2O[C@@H](CSc3nc(-c4ccccc4)c(-c4ccccc4)o3)C[C@@H](c3ccc(CO)cc3)O2)cc1)NO [Tubacin] (10000 nM)", 92.1),
    ("CC1(C)NC(=O)N(c2ccc([N+](=O)[O-])c(C(F)(F)F)c2)C1=O [Nilutamide] (1000 nM)", 103),
    ("Cc1ccc(-n2nc(C(C)(C)C)cc2NC(=O)Nc2ccc(OCCN3CCOCC3)c3ccccc23)cc1 [Doramapimod] (100 nM)", 97.7),
    ("Cc1ccc(C(=O)N(CCCN)[C@@H](c2oc3cc(Cl)ccc3c(=O)c2Cc2ccccc2)C(C)C)cc1 (1 nM)", 103),
    ("Cc1ccc(C(=O)N(CCCN)[C@@H](c2oc3cc(Cl)ccc3c(=O)c2Cc2ccccc2)C(C)C)cc1 (10 nM)", 104),
]

* * *

Reported normalised response by item:
Tested on: MDA-MB-436
test description: normalised response (% of control), CellTox Green; higher = less cell death (100 = DMSO, 0 = benzethonium chloride kill control)
experimental conditions: incubation time: 72 h

# compound, normalised response, %
data = [
    ("CCC1(c2ccc(N)cc2)CCC(=O)NC1=O (stereo not given) [Aminoglutethimide] (10000 nM)", 91.5),
    ("Cn1c(Nc2ccc(C(F)(F)F)cc2)nc2cc(Oc3ccnc(-c4ncc(C(F)(F)F)[nH]4)c3)ccc21 [RAF265] (10 nM)", 90.1),
    ("CO[C@H]1/C=C\\C=C(/C)C(=O)NC2=CC(=O)C(NCCN(C)C)=C(C[C@@H](C)C[C@H](OC)[C@H](O)[C@@H](C)/C=C(\\C)[C@@H]1OC(N)=O)C2=O [Alvespimycin] (100 nM)", 89.6),
    ("O=C(CCCCCCC(=O)Nc1ccc([C@H]2O[C@@H](CSc3nc(-c4ccccc4)c(-c4ccccc4)o3)C[C@@H](c3ccc(CO)cc3)O2)cc1)NO [Tubacin] (10000 nM)", 89.9),
    ("CCC1=C[C@@H]2CN(C1)Cc1c([nH]c3ccccc13)[C@@](C(=O)OC)(c1cc3c(cc1OC)N(C)[C@H]1[C@@](O)(C(=O)OC)[C@H](OC(C)=O)[C@]4(CC)C=CCN5CC[C@]31[C@@H]54)C2 [Vinorelbine] (100 nM)", 90.9),
]

* * *

Tested on: CAL-51
test description: normalised response (% of control), CellTox Green; higher = less cell death (100 = DMSO, 0 = benzethonium chloride kill control)
experimental conditions: incubation time: 72 h
Reported normalised response by item:

# compound, display unit, normalised response
records = [
    ("CCC(C)(C)C(=O)O[C@H]1C[C@@H](C)C=C2C=C[C@H](C)[C@H](CC[C@@H]3C[C@@H](O)CC(=O)O3)[C@H]21 [Simvastatin] (10000 nM)", "%", 46.8),
    ("C=C(c1ccc(C(=O)O)cc1)c1cc2c(cc1C)C(C)(C)CCC2(C)C [Bexarotene] (1000 nM)", "%", 110),
    ("C[C@@H](Oc1cc(-c2cnn(C3CCNCC3)c2)cnc1N)c1c(Cl)ccc(F)c1Cl [Crizotinib] (1000 nM)", "%", 83.6),
    ("CCCCCCCCCCCCCCCCCCOP(=O)([O-])OC1CC[N+](C)(C)CC1 [Perifosine] (25 nM)", "%", 93.7),
    ("O=C(CCCCCCC(=O)Nc1ccc([C@H]2O[C@@H](CSc3nc(-c4ccccc4)c(-c4ccccc4)o3)C[C@@H](c3ccc(CO)cc3)O2)cc1)NO [Tubacin] (100 nM)", "%", 101),
    ("CN[C@@H]1C[C@H]2O[C@@](C)([C@@H]1OC)n1c3ccccc3c3c4c(c5c6ccccc6n2c5c31)C(=O)N[C@H]4O [UCN-01] (10000 nM)", "%", 33.5),
    ("O=C(CCCCCCC(=O)Nc1ccc([C@H]2O[C@@H](CSc3nc(-c4ccccc4)c(-c4ccccc4)o3)C[C@@H](c3ccc(CO)cc3)O2)cc1)NO [Tubacin] (10000 nM)", "%", 53.8),
    ("N#CCNC(=O)c1ccc(-c2ccnc(Nc3ccc(N4CCOCC4)cc3)n2)cc1 [Momelotinib] (1000 nM)", "%", 117),
    ("CC(=O)Nc1ccc(C(=O)Nc2ccccc2N)cc1 [Tacedinaline] (100 nM)", "%", 103),
    ("CC(C)Cn1cnc2c(N)nc3ccccc3c21 [Imiquimod] (2500 nM)", "%", 106),
    ("Cc1ccc(C(=O)N(CCCN)[C@@H](c2oc3cc(Cl)ccc3c(=O)c2Cc2ccccc2)C(C)C)cc1 (100 nM)", "%", 74.4),
    ("N.N.[Cl][Pt][Cl] [Cisplatin] (100 nM)", "%", 103),
    ("Cc1ccc(-n2nc(C(C)(C)C)cc2NC(=O)Nc2ccc(OCCN3CCOCC3)c3ccccc23)cc1 [Doramapimod] (100 nM)", "%", 101),
    ("O=P1(NCCCl)OCCCN1CCCl (centres undefined) [Ifosfamide] (10000 nM)", "%", 93.9),
    ("CN(C)/N=N/c1[nH]cnc1C(N)=O [Dacarbazine] (10000 nM)", "%", 111),
    ("N[C@@H](CSC(c1ccccc1)(c1ccccc1)c1ccccc1)C(=O)O [S-trityl-L-cysteine] (40000 nM)", "%", 104),
    ("Cn1c(CCCC(=O)O)nc2cc(N(CCCl)CCCl)ccc21 [Bendamustine] (1000 nM)", "%", 116),
    ("CO[C@H]1/C=C\\C=C(/C)C(=O)NC2=CC(=O)C(NCCN(C)C)=C(C[C@@H](C)C[C@H](OC)[C@H](O)[C@@H](C)/C=C(\\C)[C@@H]1OC(N)=O)C2=O [Alvespimycin] (1000 nM)", "%", 69.6),
    ("CS(=O)(=O)c1ccc(C2=C(c3ccccc3)C(=O)OC2)cc1 [Rofecoxib] (10000 nM)", "%", 98.7),
    ("C#Cc1cccc(Nc2ncnc3cc(OCCOC)c(OCCOC)cc23)c1 [Erlotinib] (100 nM)", "%", 111),
    ("O=C(CCCCCCC(=O)Nc1ccc([C@H]2O[C@@H](CSc3nc(-c4ccccc4)c(-c4ccccc4)o3)C[C@@H](c3ccc(CO)cc3)O2)cc1)NO [Tubacin] (1000 nM)", "%", 93.4),
    ("CNCc1ccc(-c2[nH]c3cc(F)cc4c3c2CCNC4=O)cc1 [Rucaparib] (10000 nM)", "%", 94.4),
    ("CN(N=O)C(=O)N[C@@H](C=O)[C@@H](O)[C@H](O)[C@H](O)CO [Streptozocin] (10000 nM)", "%", 102),
    ("COc1cc2nccc(Oc3ccc(NC(=O)C4(C(=O)Nc5ccc(F)cc5)CC4)cc3)c2cc1OC [Cabozantinib] (1000 nM)", "%", 82.7),
    ("CS(=O)(=O)c1ccc(C2=C(c3ccccc3)C(=O)OC2)cc1 [Rofecoxib] (100 nM)", "%", 111),
    ("Cc1ccc(-n2nc(C(C)(C)C)cc2NC(=O)Nc2ccc(OCCN3CCOCC3)c3ccccc23)cc1 [Doramapimod] (10000 nM)", "%", 86.3),
    ("CC1(C)NC(=O)N(c2ccc([N+](=O)[O-])c(C(F)(F)F)c2)C1=O [Nilutamide] (10000 nM)", "%", 102),
    ("Cc1ccc(C(=O)Nc2ccc(CN3CCN(C)CC3)c(C(F)(F)F)c2)cc1C#Cc1cnc2cccnn12 [Ponatinib] (1000 nM)", "%", 57.4),
    ("CC(=O)Nc1ccc(C(=O)Nc2ccccc2N)cc1 [Tacedinaline] (1000 nM)", "%", 96.2),
]

* * *

Test system: MFM-223
test description: normalised response (% of control), CellTiter-Glo; higher = more viable cells (100 = DMSO, 0 = benzethonium chloride kill control)
experimental conditions: incubation time: 72 h

# molecule, display unit, normalised response
data = [
    ("CCC1(c2ccc(N)cc2)CCC(=O)NC1=O (centres undefined) [Aminoglutethimide] (100 nM)", "%", 102),
    ("CN(C)/N=N/c1[nH]cnc1C(N)=O [Dacarbazine] (100 nM)", "%", 105),
    ("CC(C)Cn1cnc2c(N)nc3ccccc3c21 [Imiquimod] (25 nM)", "%", 107),
    ("CCCCCCCCCCCCCCCCCCOP(=O)([O-])OC1CC[N+](C)(C)CC1 [Perifosine] (25 nM)", "%", 93.4),
]
